# target: SHP2 (Homo sapiens (Human))
# Sequence (Q06124 whole entry): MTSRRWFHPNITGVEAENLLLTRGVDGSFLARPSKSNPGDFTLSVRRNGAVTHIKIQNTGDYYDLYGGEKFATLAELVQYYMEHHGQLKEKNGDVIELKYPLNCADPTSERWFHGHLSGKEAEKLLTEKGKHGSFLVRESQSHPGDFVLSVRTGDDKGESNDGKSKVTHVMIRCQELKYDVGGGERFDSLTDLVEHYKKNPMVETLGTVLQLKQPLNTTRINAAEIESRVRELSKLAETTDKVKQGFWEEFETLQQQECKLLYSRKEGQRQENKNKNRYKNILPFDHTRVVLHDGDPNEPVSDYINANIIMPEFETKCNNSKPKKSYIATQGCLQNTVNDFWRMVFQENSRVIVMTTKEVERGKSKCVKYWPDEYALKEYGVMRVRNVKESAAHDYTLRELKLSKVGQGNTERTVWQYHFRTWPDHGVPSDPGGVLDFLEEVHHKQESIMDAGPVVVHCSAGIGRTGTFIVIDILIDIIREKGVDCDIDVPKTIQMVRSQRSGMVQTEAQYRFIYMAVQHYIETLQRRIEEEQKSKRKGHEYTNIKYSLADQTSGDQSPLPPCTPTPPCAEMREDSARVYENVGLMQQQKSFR
# protocol-notes: SHP2 Allosteric Inhibition Assay (DiFMUP substrate, bisphos-IRS1 peptide activation)
# setup-conditions: 0.5 μM bisphos-IRS1 peptide, 100 uM DiFMUP, room temperature
metric-name: IC50 (nM)
The answer is to be given in nM; state only the numeric part.

The following molecules have reported results that may help.
C[C@@H]1OCC2(CCN(c3ncc(Sc4ccnc5c4OC[C@@H]4C[C@@H](F)CN54)nc3CO)CC2)[C@@H]1N; 5
C[C@@H]1OCC2(CCN(c3ncc(Sc4ccnc5c4OC[C@@H]4C[C@@H](O)CN54)nc3CO)CC2)[C@@H]1N; 8
C[C@@H]1OCC2(CCN(c3ncc(Sc4ccnc5c4OC[C@@H]4C[C@H](O[C@@H]6CCOC6)CN54)nc3CO)CC2)[C@@H]1N; 12
C[C@@H]1OCC2(CCN(c3ncc(Sc4ccnc5c4OC[C@@H]4C[C@H](F)CN54)nc3CO)CC2)[C@@H]1N; 13
CO[C@H]1C[C@H]2COc3c(Sc4cnc(N5CCC6(CC5)CO[C@@H](C)[C@H]6N)c(CO)n4)ccnc3N2C1; 8

Entry under test: C[C@@H]1OCC2(CCN(c3ncc(Sc4ccnc5c4OC[C@@H]4C[C@H](O)CN54)nc3CO)CC2)[C@@H]1N . Its IC50 was 6
